Reference for the values: patent US8431564B2

# test-target: human FSH receptor (Homo sapiens, UniProt P23945)
# Construct: expressed in transfected cells; host or cells: CHO (Chinese Hamster Ovary) cells, stably transfected, cotransfected with CRE-luciferase reporter
# Sequence (P23945 18-695): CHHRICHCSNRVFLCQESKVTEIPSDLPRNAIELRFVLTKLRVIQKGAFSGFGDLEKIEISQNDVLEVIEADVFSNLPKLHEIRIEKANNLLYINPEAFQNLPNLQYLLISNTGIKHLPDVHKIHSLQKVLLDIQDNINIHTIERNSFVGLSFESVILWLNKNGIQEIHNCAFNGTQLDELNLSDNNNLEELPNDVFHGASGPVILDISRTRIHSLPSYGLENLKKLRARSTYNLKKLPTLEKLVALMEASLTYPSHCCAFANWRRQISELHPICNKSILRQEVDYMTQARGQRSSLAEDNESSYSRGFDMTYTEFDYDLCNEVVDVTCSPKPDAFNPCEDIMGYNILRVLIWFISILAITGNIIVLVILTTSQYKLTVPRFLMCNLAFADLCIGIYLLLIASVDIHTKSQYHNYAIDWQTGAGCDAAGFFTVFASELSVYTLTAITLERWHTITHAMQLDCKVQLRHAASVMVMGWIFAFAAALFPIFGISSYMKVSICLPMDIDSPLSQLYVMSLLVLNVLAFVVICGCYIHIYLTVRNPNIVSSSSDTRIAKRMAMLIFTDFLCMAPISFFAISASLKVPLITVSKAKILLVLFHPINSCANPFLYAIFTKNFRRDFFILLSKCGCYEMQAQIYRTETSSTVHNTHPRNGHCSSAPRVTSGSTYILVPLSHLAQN
# method-summary: Agonistic activity at the human FSH receptor expressed in CHO cells (CRE-luciferase reporter)
# Assay type: cell-based
# setup-conditions: CHO cells stably transfected with human FSH receptor and CRE/luciferase reporter; 4 hours incubation; pEC50 is -log EC50; read-out: hFSHRago (CHO luc) pEC50 (converted)
# Excerpt: The term EC50 means the concentration of the test compound that elicits half-maximal (50%) stimulation compared to the compound's maximally attainable effect. pEC50 is the negative log of EC50. The values can be determined e.g. in a cell line transfected with a FSH receptor gene and cotransfected with a cAMP responsive element/promoter directing the expression of a reporter gene. For the determination a software program such as MathIQ (version 2.0, ID Business Solutions Limited) can be used. […]
assay-readout: EC50

Bench note: what EC50 did COc1cc2c(cc1-c1cccnc1)-c1c(-c3cncs3)c3c(n1CC2)C(=O)N(C(C)(C)C)CCCCC3 [Compound 16n] show?
16.2 nM

Bench note: what EC50 did COc1cc2c(cc1-c1c(C)nn(C)c1C)-c1c(-c3cccs3)c3c(n1CC2)C(=O)N(C(C)C)CCNC3 [Compound 10q] show?
257 nM

Bench note: what EC50 did COC(=O)c1cc2c(cc1OC)CCn1c3c(c(-c4cccs4)c1-2)CCCCN(C(C)(C)C)C3=O [Compound 26a] show?
1 nM

Bench note: what EC50 did CCC(=O)N1CCN(C(C)C)C(=O)c2c(c(-c3cccs3)c3n2CCc2cc(OC)c(OC(C)C)cc2-3)C1 [Compound 14g] show?
219 nM

Bench note: what EC50 did COc1cc2c(cc1-c1cccnc1)-c1c(C3=CCSCC3)c3c(n1CC2)C(=O)N(C(C)(C)C)CCCC3 [Compound 25d] show?
10.7 nM

Bench note: what EC50 did COc1cc2c(cc1NS(C)(=O)=O)-c1c(-c3cccs3)c3c(n1CC2)C(=O)N(C(C)(C)C)CCCC3 [Compound 29a] show?
1.95 nM

Bench note: what EC50 did COc1cc2c(cc1OC(C)C)-c1c(-c3ccc(F)cc3)c3c(n1CC2)C(=O)N(C(C)(C)C)CCOC3 [Compound 18g] show?
20 nM
